Sourced from PubChem BioAssay (NCI)

So I've got a bunch of compounds here, and I need their GI50 values.
- Tested on: SK-MEL-2 melanoma
- Assay Name: NCI tumour cell line growth inhibition, 48 h

[[record]]
compound = "COc1ccc(C/C(=C(\\C)c2ccc(OCCN3CCCC3)cc2)c2ccc(OCCN3CCCC3)cc2)cc1"
quantity = "GI50"
result = "1.87 µM"

[[record]]
compound = "Cc1ccc(/C=N/Nc2nc(Nc3ccccc3)nc(-n3nc(C)cc3C)n2)cc1"
quantity = "GI50"
result = "5.72 µM"

[[record]]
compound = "O=C([CH-]C(=O)c1ccccc1)c1ccccc1.[CH-]1CCCCC1.[CH-]1CCCCC1.[CH-]1CCCCC1.[Sn+4]"
quantity = "GI50"
result = "3.39 µM"


Please give GI50, item by item, for the list that follows.
1. C[C@]12CC[C@H]3[C@@H](CC=C4C[C@@H](N5CCCC5)CC[C@@]43C)[C@@H]1C/C(=C\c1cccc(OCCN3CCOCC3)c1)[C@@H]2O
2. CCc1ccc(CCC(=O)Nc2ncc(Cc3ccc(Cl)cc3)s2)o1
3. COc1cc(/C=C/C(=O)/C=C/c2ccc(-n3ccnc3C)cc2)ccc1O

Ans.
1. 14.1 µM
2. 0.684 µM
3. 26 µM

Please give GI50, item by item, for the list that follows.
1. CC(C)(C)c1ccc(Oc2ccc(N)cn2)cc1
2. Cc1csc2[n+]1-c1ccccc1N(C(=O)Nc1ccccc1)C(C)C2 (stereo unspecified)
3. O=C(Nc1cccc(O)c1)c1ccc(NC2=C(Cl)C(=O)N(Cc3ccc(Cl)cc3Cl)C2=O)cc1
4. Cc1cccc2nc3ccccc3c(Nc3ccc(NS(C)(=O)=O)cc3)c12
5. COCc1c(-c2cc3cc(C)cc(OC)c3s2)c2c(N)ncnn2c1CN1CCNC(=O)C1
6. Nc1nc([Se])c2ncn(C3OC(CO)C(O)C3O)c2n1 (stereo unspecified)

Ans.
> 100 µM
> 100 µM
5.29 µM
16.9 µM
2.83 µM
59.8 µM

Please give GI50, item by item, for the list that follows.
1. CC1=C(c2ccccc2)C(O)(c2ccccc2)C(C)C1=O (stereo unspecified)
2. COc1cc(/C=N/Nc2ncnc3c2cnn3-c2ccccc2)ccc1O
3. COc1ccc2c(c1)[nH]c(=O)c1c3cccc(F)c3cn21
4. Cc1cc2c(cc1Cl)S/C(=C/C(=O)O)C(Nc1ccc3ncsc3c1)=NS2(=O)=O

Ans.
1: 29.7 µM; 2: 5.85 µM; 3: 0.469 µM; 4: > 29.3 µM
